Assignment: determine reported IC50 for the given compounds.
System: C4-2B cells
assay text: MTT cell growth inhibition, C4-2B;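 note: cells treated with a dilution series for 72 h, then MTT added and absorbance read at 600 nm, IC50 fitted from dose-response curves by nonlinear regression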
applied conditions: read-out: Cellular IC50 (μM) C4-2B, Table 9
Record the result as number plus unit.

Incoming: Reported IC50 for C4-2B cells, given CC1(C)CCC(O)C=C1/C=C/C(=O)/C=C/c1cccc2cc[nH]c12 (centres unmarked) [Compound B90] ?
Outgoing: 1.7 µM

Incoming: Reported IC50 for C4-2B cells, given CC1(C)CCC(O)C=C1/C=C/C(=O)/C=C/c1ccc2c(c1)CCO2 (centres unmarked) [Compound B79] ?
Outgoing: 5.6 µM

Incoming: Reported IC50 for C4-2B cells, given CC1(C)CCC(O)C=C1/C=C/C(=O)/C=C/c1cnc2ccccc2c1 (centres unmarked) [Compound B95] ?
Outgoing: 1.4 µM

Incoming: Reported IC50 for C4-2B cells, given CC1(C)CCC(O)C=C1/C=C/C(=O)/C=C/c1ccnc2ccccc12 (centres unmarked) [Compound B96] ?
Outgoing: 1.5 µM

Incoming: Reported IC50 for C4-2B cells, given Cn1cc(/C=C/C(=O)/C=C/C2=CC(O)CCC2(C)C)c2ccccc21 (centres unmarked) [Compound B88] ?
Outgoing: 11.8 µM
